System: Mus musculus
Experiment: Analgesic activity in tail flick test, subcutaneous administration
Type: functional
Details: Mus musculus, Tail, sc; read-out: ED50
assay metric: ED50

**Q:** State its ED50 on Mus musculus: "CCN(C(=O)C(C)(C)C1(O)CCN(CCc2ccccc2Cl)CC1)c1ccccc1OC.O=C(O)/C=C/C(=O)O"
**A:** > 56 mg/kg

**Q:** State its ED50 on Mus musculus: CC(C(=O)N(C1CCCCC1)C(C)(C)C)C1(O)CCN(CCc2ccccc2Cl)CC1.O=C(O)/C=C/C(=O)O (stereo not given)
**A:** > 10 mg/kg

**Q:** State its ED50 on Mus musculus: CCCCN(CCCC)C(=O)C(C)C1(O)CCN(CCc2ccccc2Cl)CC1.O=C(O)/C=C/C(=O)O (stereo not given)
**A:** < 50 mg/kg

**Q:** State its ED50 on Mus musculus: CCCN(C(=O)C(C)C1(O)CCN(CCc2ccccc2Cl)CC1)C1CCCCC1 (stereo not given)
**A:** > 10 mg/kg

**Q:** State its ED50 on Mus musculus: CCCCNC(=O)C(C)C1(O)CCN(CCc2ccccc2Cl)CC1 (stereo not given)
**A:** > 18 mg/kg

###

Assignment: determine reported ED50 for the given molecules.
System: Mus musculus
Experiment: Analgesic activity in tail flick test, subcutaneous administration
Assay type: functional
Conditions: Mus musculus, Tail, sc; read-out: ED50

**Q:** Look up ED50 for this molecule: CC(C(=O)N(C1CCCCC1)C1CCCCC1)C1(O)CCN(CCc2ccccc2Cl)CC1.Cl (stereo not given)
**A:** > 56 mg/kg

**Q:** Look up ED50 for this molecule: Br.CC(C)C(C(=O)N(C)C1CCCCC1)C1(O)CCN(CCc2ccccc2Cl)CC1 (stereo not given)
**A:** > 56 mg/kg

**Q:** Look up ED50 for this molecule: CC(C(=O)N(C)C1CCCCC1)C1(O)CCN(C)CC1.Cl (stereo not given)
**A:** > 56 mg/kg

**Q:** Look up ED50 for this molecule: "COc1ccccc1NC(=O)C(C)(C)C1(O)CCN(CCc2ccccc2Cl)CC1.Cl"
**A:** > 32 mg/kg

**Q:** Look up ED50 for this molecule: COc1ccccc1NC(=O)C(C)C1(O)CCN(CCc2ccccc2Cl)CC1.O=C(O)/C=C/C(=O)O (stereo not given)
**A:** > 18 mg/kg

###

Assignment: determine reported ED50 for the given molecules.
Tested on: Mus musculus
Assay: Analgesic activity in tail flick test, oral administration
Assay type: functional
Conditions: Mus musculus, Tail, po; read-out: ED50

**Q:** Look up ED50 for this molecule: "CN(C(=O)CC1(O)CCN(CCc2ccccc2Cl)CC1)C1CCCCC1.Cl"
**A:** < 56 mg/kg

**Q:** Look up ED50 for this molecule: CCCCC(C(=O)N(C)C1CCCCC1)C1(O)CCN(CCc2ccccc2Cl)CC1.O=C(O)/C=C/C(=O)O (centres undefined)
**A:** > 100 mg/kg

**Q:** Look up ED50 for this molecule: CC(C(=O)N(C)C1CCCCC1)C1(O)CCN(C)CC1.Cl (centres undefined)
**A:** > 100 mg/kg

**Q:** Look up ED50 for this molecule: Br.CC(C)C(C(=O)N(C)C1CCCCC1)C1(O)CCN(CCc2ccccc2Cl)CC1 (centres undefined)
**A:** > 100 mg/kg

**Q:** Look up ED50 for this molecule: CCCCN(CCCC)C(=O)C(C)C1(O)CCN(CCc2ccccc2Cl)CC1.O=C(O)/C=C/C(=O)O (centres undefined)
**A:** < 100 mg/kg

**Q:** Look up ED50 for this molecule: CC(C(=O)N(C)C1CCCCC1)C1(O)CCN(CCc2ccccc2)CC1.Cl (centres undefined)
**A:** > 56 mg/kg

**Q:** Look up ED50 for this molecule: CC(C(=O)N(C1CCCCC1)C1CCCCC1)C1(O)CCN(CCc2ccccc2Cl)CC1.Cl (centres undefined)
**A:** > 100 mg/kg

**Q:** Look up ED50 for this molecule: CC(C(=O)NC1CCCCC1)C1(O)CCN(CCc2ccccc2Cl)CC1.O=C(O)/C=C\C(=O)O (centres undefined)
**A:** < 56 mg/kg

**Q:** Look up ED50 for this molecule: Br.CCCCCCCN1CCC(O)(C(C)C(=O)N(C)C2CCCCC2)CC1 (centres undefined)
**A:** > 100 mg/kg
